# method description: Pharmacokinetics and absolute bioavailability in Sprague Dawley rats, IV and SC 4 mg/kg (LC/MS MS)
# Type: in vivo, rat
# experimental conditions: in vivo, IV, rat
Where no end group is shown, it is not given here.
reported endpoint: Tmax (min)

IGLHDPTQGTEPNG [HIP2]: 4.98
Ac-IGLHDPTQGTEPNG-NH2 [HIP2B]: 4.98

###

# method description: Pharmacokinetics and absolute bioavailability in Sprague Dawley rats, IV and SC 4 mg/kg (LC/MS MS)
# Type: in vivo, rat
# experimental conditions: rat, in vivo, SQ, rat, read-out: AUC(0-∝)
Where no end group is shown, it is not given here.
reported endpoint: AUC (ng·h/mL)

P: Ac-IGLHDPTQGTEPNG-NH2 [HIP2B]
Q: IGLHDPTQGTEPNG [HIP2]
Task: Of P versus Q , which is the one with smaller reported AUC? Answer format: the label of the selected item.
Result: Q
(Q: 2.7 ng·h/mL, P: 1930 ng·h/mL)

###

# method description: Pharmacokinetics and absolute bioavailability in Sprague Dawley rats, IV and SC 4 mg/kg (LC/MS MS)
# Type: in vivo, rat
# experimental conditions: in vivo, IV, rat, read-out: apparent mean volume of distribution
reported endpoint: Vd (L/kg)
# unit: L/kg | format: bare number

// Vd value for Ac-IGLHDPTQGTEPNG-NH2 [HIP2B] : 0.48

###

# method description: Pharmacokinetics and absolute bioavailability in Sprague Dawley rats, IV and SC 4 mg/kg (LC/MS MS)
# Format: in vivo, rat
# experimental conditions: male, Sprague-Dawley, rat, plasma, iv, rat, read-out: T1/2 (converted)
Where no end group is shown, it is not given here.
reported endpoint: half-life

// half-life value for IGLHDPSHGTLPNGS [INGAP, reference compound] : < 1.5 min

###

# method description: Pharmacokinetics and absolute bioavailability in Sprague Dawley rats, IV and SC 4 mg/kg (LC/MS MS)
# Format: in vivo, rat
# experimental conditions: male, Sprague Dawley, plasma, sc, SQ, rat, read-out: C1 h
reported endpoint: level at 1 h (ng/mL)
# unit: ng/mL | format: bare number

// level at 1 h value for Ac-IGLHDPTQGTEPNG-NH2 [HIP2B] : 612

###

# method description: Pharmacokinetics and absolute bioavailability in Sprague Dawley rats, IV and SC 4 mg/kg (LC/MS MS)
# Assay type: in vivo, rat
# experimental conditions: male, Sprague-Dawley, rat, plasma, iv, rat, footnote *extrapolated, read-out: AUC(0-∝), extrapolated
Where no end group is shown, it is not given here.
reported endpoint: AUC (ng·h/mL)
# unit: ng·h/mL | format: bare number

// AUC value for IGLHDPSHGTLPNGS [INGAP, reference compound] : 440

###

# method description: Pharmacokinetics and absolute bioavailability in Sprague Dawley rats, IV and SC 4 mg/kg (LC/MS MS)
# Format: in vivo, rat
# experimental conditions: rat, in vivo, SQ, rat, read-out: T1/2 (converted)
Where no end group is shown, it is not given here.
reported endpoint: half-life (min)

I: Ac-IGLHDPTQGTEPNG-NH2 [HIP2B]
II: IGLHDPTQGTEPNG [HIP2]
Task: Of I versus II , which is the one with smaller reported half-life? Answer format: the label of the selected item.
Result: II

###

# method description: Pharmacokinetics and absolute bioavailability in Sprague Dawley rats, IV and SC 4 mg/kg (LC/MS MS)
# Assay type: in vivo, rat
# experimental conditions: in vivo, IV, rat, estimated
# Description: The absolute bioavailability and pharmacodynamic study was conducted in Sprague Dawley rats following intravenous and subcutaneous dose administration of HIP2 (FIG. 24), Optimized HIP2B and INGAP. The purpose was to determine the absorption, absolute bioavailability and plasma levels of HIP2, Optimized HIP2B and INGAP in male rats following two different routes of administration. […]
Where no end group is shown, it is not given here.
reported endpoint: C0 (ng/mL)

IGLHDPTQGTEPNG [HIP2]: 18800
Ac-IGLHDPTQGTEPNG-NH2 [HIP2B]: 18800
